- Test system: HCT116
- procedure-text: cell viability (CellTiter-Glo) relative to plate median (fraction of plate median); higher = more viable cells
- applied-conditions: 5 µM; treatment time 24 h; reporter: TCF4/Wnt
parameter-measured: cell viability

CC(C)=CCC1=C(O)C(=O)c2ccccc2C1=O    1.07
C[C@@H]1C[C@H]2[C@@H]3CCC4=CC(=O)C=C[C@]4(C)[C@@]3(F)[C@@H](O)C[C@]2(C)[C@@]1(O)C(=O)COP(=O)(O)O    1.02
CN(C)[C@@H]1C(O)=C(C(=O)NCN2CCCC2)C(=O)[C@@]2(O)C(O)=C3C(=O)c4c(O)cccc4[C@@](C)(O)[C@H]3C[C@@H]12    1.06
Cn1cnc([N+](=O)[O-])c1Sc1ncnc2[nH]cnc12    1.02

----------
- System: SW480
- procedure-text: cell viability (CellTiter-Glo) relative to plate median (fraction of plate median); higher = more viable cells
- applied-conditions: 5 µM; treatment time 24 h; reporter: 7TFP
parameter-measured: cell viability

CC(C)=CCOc1cc2oc(=O)ccc2cc1O    1.04
CNCCc1ccccn1    0.958
OC[C@@H](O)[C@@H](O[C@@H]1O[C@H](CO)[C@@H](O)[C@H](O)[C@H]1O)[C@H](O)[C@@H](O)CO    1.01
Cc1ncc([N+](=O)[O-])n1CCO    1.02
C[C@]12C=CC(=O)C=C1CC[C@@H]1[C@@H]2[C@@H](O)C[C@@]2(C)[C@H]1CC[C@]2(O)C(=O)COC(=O)CCC(=O)O    1.03

----------
- Tested on: DLD1
- procedure-text: cell viability (CellTiter-Glo) relative to plate median (fraction of plate median); higher = more viable cells
- applied-conditions: 5 µM; treatment time 24 h; reporter: 7TFP
Listed next: entries and their corresponding cell viability.
parameter-measured: cell viability

CC1(C)O[C@@H]2C[C@H]3[C@@H]4C[C@H](F)C5=CC(=O)CC[C@]5(C)[C@H]4[C@@H](O)C[C@]3(C)[C@]2(C(=O)CO)O1    1.01
CN1CCN(C(c2ccccc2)c2ccccc2)CC1    1.04
CCOc1ccc(C(=O)c2cc(O)c(OC)c(OC)c2O)cc1    0.982
COc1c(C)c2c(c(O)c1C/C=C(\C)CCC(=O)O)C(=O)OC2    1.03
NCC(=O)CCC(=O)O    1.01
CC(N)CCCC(C)(C)O (stereo unspecified)    1.01
COC1=CC(=O)c2c(O)c3c(c(O)c2C1=O)OC1(Oc2c(cc4cc(C)oc(=O)c4c2O)C2OC21)C3O (stereo unspecified) [Griseorhodin A]    1.09
CC(=O)O[C@@H]1C[C@H]2C(C)(C)C(=O)C=C[C@]2(C)[C@H]2CC[C@@]3(C)[C@H](c4ccoc4)OC(=O)[C@H]4O[C@]43[C@@]21C    1.01
CC(=O)N[C@@H](CC(C)C)C(=O)O    1.04
O=C(c1ccccc1)c1ccc2n1CCC2C(=O)O (stereo unspecified)    1.03
CCCCC1C(=O)N(c2ccccc2)N(c2ccc(O)cc2)C1=O (stereo unspecified)    0.923
C=C1C2=CC(=O)O[C@@H](c3ccoc3)[C@]2(C)CC[C@@H]1[C@@]1(C)C=CC(=O)C(C)(C)[C@@H]1CC(=O)OC    1.14
CCN(CC)CCOc1ccc2c(c1)C(=O)c1cc(OCCN(CC)CC)ccc1-2    0.941
COC(=O)C(O)c1ccccc1 (stereo unspecified)    1.04
O=C(CCCN1CC=C(n2c(=O)[nH]c3ccccc32)CC1)c1ccc(F)cc1    0.995
Oc1c(Cl)cc(Cl)c2cccnc12    0.993
O=C(Cc1ccccc1)NO    1.03
C[C@]1(O)CC(=O)c2c(ccc3c2C(=O)c2cccc(O)c2C3=O)C1 [Tetrangomycin; Benzanthramycin; LL-AE-705-Y]    0.822
C[C@@H]1CC[C@@]23CCC4(C)[C@@](C=CC5[C@@]6(C)CCC(=O)C(C)(C)C6CC[C@]54C)(OC2=O)C3[C@H]1C (stereo partly specified)    0.982
O=C(O)c1cccnc1C(=O)O    1.07
COC(=O)C1=CO[C@@H](O[C@@H]2O[C@H](CO)[C@@H](O)[C@H](O)[C@H]2O)[C@@H]2[C@@H](C)CC(=O)[C@]12O    0.871
